- study target: purified ITK (Invitrogen PV3875) (Homo sapiens, UniProt Q08881)
- Construct: purchased Invitrogen PV3875
- Sequence (Q08881 1-620): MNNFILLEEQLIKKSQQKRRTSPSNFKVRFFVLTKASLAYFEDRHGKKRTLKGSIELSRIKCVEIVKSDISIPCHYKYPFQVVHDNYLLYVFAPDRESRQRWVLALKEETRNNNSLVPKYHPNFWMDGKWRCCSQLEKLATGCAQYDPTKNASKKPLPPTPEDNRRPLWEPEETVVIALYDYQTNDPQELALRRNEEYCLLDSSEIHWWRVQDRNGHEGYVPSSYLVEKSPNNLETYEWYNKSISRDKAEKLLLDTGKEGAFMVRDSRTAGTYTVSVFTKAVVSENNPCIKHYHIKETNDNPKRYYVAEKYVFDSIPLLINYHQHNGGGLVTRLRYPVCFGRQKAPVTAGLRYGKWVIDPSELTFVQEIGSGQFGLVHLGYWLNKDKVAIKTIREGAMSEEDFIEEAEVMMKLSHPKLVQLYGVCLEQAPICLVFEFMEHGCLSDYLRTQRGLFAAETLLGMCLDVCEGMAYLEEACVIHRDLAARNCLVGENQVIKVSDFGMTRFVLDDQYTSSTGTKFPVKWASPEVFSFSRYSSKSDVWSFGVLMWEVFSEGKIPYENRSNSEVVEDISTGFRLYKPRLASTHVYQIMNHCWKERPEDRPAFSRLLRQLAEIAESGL
- assay protocol: ITK peptide phosphorylation assay (Caliper LabChip or LCMS)
- Type: biochemical
- test context: Table 1, Examples 141-279
pKi: −log10 of the molar value.
measurement label: pKi

INSERT INTO results (compound, study_target, measurement) VALUES
  ('O=C(Nc1cnn(Cc2ccccc2)c1)c1n[nH]c2cc(-c3ccnnc3)ccc12', 'purified ITK (Invitrogen PV3875) (Homo sapiens, UniProt Q08881)', 6.88);

[A] CN1CCC(Cn2cc(NC(=O)c3n[nH]c4cc(-c5cn[nH]c5)ccc34)cn2)C1 (stereo not shown)
[B] O=C(Nc1cnn(Cc2ccccc2)c1)c1n[nH]c2c(F)cccc12
[C] Cc1cc2c(C(=O)Nc3cnn(Cc4cccc(C#N)c4)c3)n[nH]c2cc1-c1cn[nH]c1
Task for the reader: rank each entry by its pKi, from the minimum upward. List each label, following the requested order.
B, C, A

Origin of the recorded values: patent US20140309210A1
